Target: muscarinic receptors (3H-OXO-M site, cerebral cortex)
Assay: Radio ligand binding: displacement of muscarinic agonist 3H-Oxotremorine-M (3H-OXO-M), rat cerebral cortex membranes
Parameters: species or system Hooded Lister rats
Conditions: 2 nM 3H-OXO-M, 2mM magnesium chloride, tris buffer pH 7.7, 37° C., 30 min
Structures can show the parent of a compound that is named as a salt.
metric: IC50 (nM)
Please respond with the number in nM and leave the unit unwritten.

// query State its IC50 on muscarinic receptors (3H-OXO-M site, cerebral cortex): CCCc1noc(C23CCCN(C2)C3)n1 [Example E6, oxalate salt]
// result 40

// query Give muscarinic receptors (3H-OXO-M site, cerebral cortex) IC50 for C1CN2CC(c3nc(C4CC4)no3)(C1)C2 [Example E7, oxalate salt]
// result 62

// query Lab note: need IC50 for c1coc(C23CCCN(C2)C3)n1 [Example E4, oxalate salt] on muscarinic receptors (3H-OXO-M site, cerebral cortex), anyone have it?
// result 540

// query Given the entry CCCCCc1noc(C23CCCN(C2)C3)n1 [Example E10, oxalate salt] , what IC50 was observed with muscarinic receptors (3H-OXO-M site, cerebral cortex)?
// result 141
